These data points were gathered from patent US20260265410A1.

molecular target: T1, human PTPRG on the cell surface (U937 cells, HEL cells) (human, UniProt P23470 20-1445); assay: flow cytometry on whole U937 cells, screen of the 28 clones (Ctrl row = 0); PTPRG is named as the antigen on U937 cells only in the later examples
T1 construct: Endogenous PTPRG of human AML cell lines
T1 sequence (P23470 20-1445): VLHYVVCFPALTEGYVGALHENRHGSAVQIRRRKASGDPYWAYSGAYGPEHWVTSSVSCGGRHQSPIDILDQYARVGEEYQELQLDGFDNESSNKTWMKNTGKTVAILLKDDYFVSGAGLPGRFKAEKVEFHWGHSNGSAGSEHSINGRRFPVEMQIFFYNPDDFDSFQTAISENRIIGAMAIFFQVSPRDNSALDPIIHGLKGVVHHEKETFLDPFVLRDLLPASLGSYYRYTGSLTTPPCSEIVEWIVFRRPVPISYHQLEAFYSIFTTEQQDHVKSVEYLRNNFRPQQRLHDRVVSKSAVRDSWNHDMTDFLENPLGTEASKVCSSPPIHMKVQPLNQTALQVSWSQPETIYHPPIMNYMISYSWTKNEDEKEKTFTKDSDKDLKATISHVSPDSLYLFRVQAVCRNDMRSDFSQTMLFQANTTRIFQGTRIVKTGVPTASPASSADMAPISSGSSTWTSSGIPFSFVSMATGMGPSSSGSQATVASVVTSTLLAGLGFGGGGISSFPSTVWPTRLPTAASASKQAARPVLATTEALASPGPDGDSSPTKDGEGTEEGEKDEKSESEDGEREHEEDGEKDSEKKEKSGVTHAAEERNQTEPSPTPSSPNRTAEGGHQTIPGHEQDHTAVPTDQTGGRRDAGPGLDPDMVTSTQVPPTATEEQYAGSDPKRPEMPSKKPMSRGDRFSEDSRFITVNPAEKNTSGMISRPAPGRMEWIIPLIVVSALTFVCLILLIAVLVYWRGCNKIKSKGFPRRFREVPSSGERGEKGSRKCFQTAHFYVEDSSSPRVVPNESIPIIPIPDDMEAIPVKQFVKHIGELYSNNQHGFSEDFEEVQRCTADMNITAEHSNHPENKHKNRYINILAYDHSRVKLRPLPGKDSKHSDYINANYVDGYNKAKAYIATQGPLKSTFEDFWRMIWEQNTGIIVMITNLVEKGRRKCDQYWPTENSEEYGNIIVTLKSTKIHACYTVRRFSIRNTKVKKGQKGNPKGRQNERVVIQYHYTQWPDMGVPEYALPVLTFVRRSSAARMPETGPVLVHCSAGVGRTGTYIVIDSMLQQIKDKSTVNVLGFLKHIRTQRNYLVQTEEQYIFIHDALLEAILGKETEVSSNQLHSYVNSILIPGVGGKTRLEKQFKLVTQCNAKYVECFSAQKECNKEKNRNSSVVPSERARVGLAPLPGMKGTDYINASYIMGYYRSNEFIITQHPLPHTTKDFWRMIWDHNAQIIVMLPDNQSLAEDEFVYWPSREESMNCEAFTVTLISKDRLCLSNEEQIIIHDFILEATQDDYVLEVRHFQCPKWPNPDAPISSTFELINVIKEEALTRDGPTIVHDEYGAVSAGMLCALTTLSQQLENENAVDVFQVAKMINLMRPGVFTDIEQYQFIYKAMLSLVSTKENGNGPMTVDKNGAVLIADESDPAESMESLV
observable: flow cytometry binding value (the table prints no name or unit)
Would you mind answering with just the numeric figure?

Here are 3 binders together with their reported answers.
Fab_2861 (Fab, V domains shown, Chimeric rabbit/human Fab; also called P2861; clone 2861) VH: AQSVEESGGRLVTPGTPLTLTCTVSGIDLSSYAMGWVRQAPGKGLEYIGIIVSDGRTYYTSWAKGRFTISKTSTTVDLKMTSPTTEDTATYFCAREGYGYYFDIWGPGTLVTISS VL: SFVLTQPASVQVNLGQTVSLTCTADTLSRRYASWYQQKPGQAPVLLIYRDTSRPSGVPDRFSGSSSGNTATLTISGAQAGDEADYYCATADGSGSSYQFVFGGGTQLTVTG | 85
Fab_17 (Fab, V domains shown, Chimeric rabbit/human Fab; also called P17; clone 17) VH: AQSLEEFGGRLATPGTPLTLTCTASGFSLGTYSMSWVRQAPGKGLEWIGTIGGRGDAYYASWAKGRFTISRTSTTVDLKMTSLATEDTATYFCVRENYGYAFDIWGPGTLVTISS VL: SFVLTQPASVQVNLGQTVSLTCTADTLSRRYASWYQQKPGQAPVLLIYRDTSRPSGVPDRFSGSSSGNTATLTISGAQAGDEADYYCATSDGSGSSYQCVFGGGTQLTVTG | 87.5
Fab_130 (Fab, V domains shown, Chimeric rabbit/human Fab; also called P130; clone 130) VH: QEQQKESGGGLFKPTDTLTLTCTVSGFSLSSNAISWVRQAPGNGLEWIGAIDNSGSAYYATWAKGRSTITRATNLNTVTLKMTSVTAADTATYFCAREDVRADSIDLNMWGPGTLVTISS VL: SFVLTQPASVQVNLGQTVSLTCTADTLSRSYASWYQQKPGQAPVLLIYRDTSRPSGVPDRFSGSSSGNTATLTISGAQAGDEADYYCATSDGSGSSYQFVFGGGTQLTVTG | 78.3

Endpoint output: flow cytometry binding value (the table prints no name or unit) of Fab_1707 (Fab, V domains shown, Chimeric rabbit/human Fab; also called P1707) VH: AQSLEEFGGGLIKPGGTLTLTCTASGFTISSYDMSWVRQAPGSGLEWIGTMAYGGDTYHASWAKSRSTITRDTNLNTVTLKMTSLTVADTATYFCARDVGSGHYYDDMYLWGPGTLVTVSS VL: SFVLTQPASVQVNFGQTVSLTCTADTLSRRYASWYQQKPGQAPVLLIYRDTSRPSGVPDRFSGSSSGNTATLTISGAQAGDEADYYCATGDGSGSSYNYVFGGGTQLTVTG . Value?
92

Endpoint output: flow cytometry binding value (the table prints no name or unit) of Fab_2388 (Fab, V domains shown, Chimeric rabbit/human Fab; also called P2388; clone 2388) VH: QEQLKESGGGLFKPTDTLTLTCTVSGFSLSNYAISLVRQPPGNGLEWIGAIDAGGVTYYASWAKSRSTITRNTNLNTVTLKMTSLTAADTATYFCAREEWSSSSGLYFSIWGPGTLVTISS VL: SFVLTQPASVQVNLGQTVSLTCTADTLSRRYASWYQQKPGQAPVLLIYRDTSRPSGVPDRFSGSSSGNTATLTISGAQAGDEADYYCATSDGSGSSYLYVFGGGTQLTVTG . Value?
90.9
